Target: yeast histone H2A-H2B dimer (Saccharomyces cerevisiae) (UniProt P04911)
Test: ITC; ITC200 at 20 °C; 0.5 mM ARB2 or mutant in the injector, 0.2 mM H2A/B or 0.25 mM H3/4 in the sample cell; 25 mM Tris-HCl pH 7.5, 200 mM NaCl; single-site fitting model
assayEndpoint: dH (kcal/mol)

INSERT INTO results (binder, observedmeasurement) VALUES
  ('ARB2-M2 (residues Tyr468 and Glu472 mutated to Ala) (domain or fragment) LQKAIRQQQQHALSDAFNFVTLPLVSMDLPDNTVLCTPNISESNTIIIVVHDTSDIWAKRNVISGTIDLSSSVIIDNSLDFIKWGLDRKYGIIDVNIPLTLFEPDNYSGMITSQEVLIYLWDNYIKYFPSVAKIAFIGIGDSYSGIVHLLGHRDTRAVTKTVINFLGDKQLKPLVPLVDETLSEWYFKNSLIFSNNSHQCWKENESRKPRKKFGRVLRCDTDGLNNIIEERFEEATDFILDS', -8.9);
